Assay: Protein binding in human plasma assessed as unbound fraction at 1 uM measured after 6 hrs by equilibrium dialysis method
Assay type: ADME, cell-free
reported-metric: fraction unbound at 6 h, 1 µM

{"columns": ["structure-string", "reported-metric", "numeric-readout"],
 "data": [
  ["Cc1cccc(Cl)c1-c1ccc2[nH]c(=O)[nH]c2c1", "fraction unbound at 6 h, 1 µM", 0.9],
  ["O=c1[nH]c2ccc(-c3c(Cl)cccc3Cl)cc2[nH]1", "fraction unbound at 6 h, 1 µM", 0.5],
  ["O=c1[nH]c2ccc(-c3c(Cl)cccc3OC(F)(F)F)cc2[nH]1", "fraction unbound at 6 h, 1 µM", 0.3],
  ["O=c1[nH]c2ccc(-c3c(Cl)cccc3C3CC3)cc2[nH]1", "fraction unbound at 6 h, 1 µM", 0.2],
  ["Cc1cc(-c2c(Cl)cccc2OC(F)(F)F)cc2c1NC(=O)C2", "fraction unbound at 6 h, 1 µM", 0.3]
]}
